Recorded values, source PubChem BioAssay (NCI).

System: NCI-H460 lung
TEST_SUMMARY: NCI tumour cell line growth inhibition, 48 h
TEST_READOUT: TGI

See these solved cases before continuing.
CN(/N=C/c1cccc2cccnc12)c1ccc([N+](=O)[O-])cc1[N+](=O)[O-] : > 100 µM
O=C(Oc1cccc(F)c1OC(=O)c1cccc(O)c1)c1cccc(O)c1 : > 100 µM
CNC(=O)Nc1nc2ccc([N+](=O)[O-])cc2[nH]1 : > 100 µM
CN(CCO)CC[C@H](CSc1ccccc1)Nc1ccc(S(=O)(=O)NC(=O)c2ccc(N3CCC([C@@H](O)c4ccccc4-c4ccc(Cl)cc4)CC3)cc2)cc1S(=O)(=O)C(F)(F)F : 19.9 µM
C=C(C)[C@@H]1CC[C@]2(C)CC[C@]3(C)[C@H](CC[C@@H]4[C@@]5(C)CC[C@H](O)C(C)(C)[C@@H]5CC[C@]43C)[C@@H]12 : > 100 µM
C=CCOc1cc(NC(=S)c2ccoc2C)ccc1OC : > 100 µM

Lab note: measured TGI of C[C@H](NC(=O)[C@@H](C)N)[C@H](Oc1ccc2c(cnn2-c2ccc(F)cc2)c1)c1ccc2c(c1)OCCO2 was 3.15 µM

The compound listed as NC(=O)C(=O)N/N=C1\C(=O)N(c2ccc(Cl)cc2Cl)C(=O)C1C(=O)Nc1ccc(Cl)cc1Cl (stereo not drawn) has a reported TGI of > 100 µM

---

System: K-562 leukemia
TEST_SUMMARY: NCI tumour cell line growth inhibition, 48 h
TEST_READOUT: TGI

# example entries with known answers
Cc1ccc([N+](=O)[O-])cc1S(=O)(=O)Nc1ccc(C2=NOC(c3ccco3)C2)cc1 (stereo not drawn) : 59.3 µM
Cc1ccc(NCC(=O)N2CC(=O)Nc3ccccc32)c(C)c1 : > 100 µM
CC[C@H](CCCC[C@H]1CC[C@@H]2CC(=O)C[C@H]12)OC : 55.2 µM
O=C(O)CCCSC(=O)Nc1ccc(N=Nc2ccccc2)cc1 : > 100 µM

TGI in this record for O=C1N(C2CCCCC2)CC12CCCCC2 : > 100 µM

For reference, reported TGI for COc1ccc(-c2nn(-c3cccc(Cl)c3)cc2-c2cc(-c3cccs3)[nH]c(=S)n2)cc1 stands at > 100 µM

For reference, reported TGI for CCN1CCC(O)(c2ccc(Oc3ccccc3)cc2)C(C(=O)c2ccc(Oc3ccccc3)cc2)C1 (stereo not drawn) stands at > 100 µM

According to the records, this compound CC1OC(OC2C(O)COC(OC3C(C)OC(OC4C(OC(=O)[C@]56CCC(C)(C)C[C@@H]5C5=CCC7[C@@]8(C)C[C@H](O)[C@H](OC9OC(CO)C(O)C(OC%10OC(CO)C(O)C(O)C%10O)C9O)[C@@](C)(CO)[C@@H]8CC[C@@]7(C)[C@]5(C)CC6)OCC(O)C4O)C(O)C3OC3OCC(O)(CO)C3O)C2O)C(O)C(O)C1O (stereo partly drawn) displays TGI of 50 µM

The reported TGI of the compound Fc1ccc(Oc2nc3ccc(C(F)(F)F)cc3nc2-c2ccccc2)cc1 was > 10 µM

# compound OC1c2ccccc2CC12Cc1ccccc1C2 (stereo not drawn) ; its TGI = > 100 µM

---

System: T-47D breast
TEST_SUMMARY: NCI tumour cell line growth inhibition, 48 h
TEST_READOUT: TGI

O=C(c1ccccc1)c1ccccc1-c1ccccc1 : > 100 µM
O=C(NNC(=S)Nc1ccccc1)c1cc(-c2ccccc2)nc2ccccc12 : 50.5 µM
O.O.[NH-]C1(C(=O)O)CCCC1.[NH-]C1(C(=O)O)CCCC1.[Ni+2] : > 100 µM

// TGI value for CC1(C)C2C=C(CCN3CCOCC3)CC1C2 (stereo unspecified) : > 100 µM

Entry COc1ccc([C@H]2CC(=O)C[C@H](c3ccc(OC)cc3)C23C(=O)c2ccccc2C3=O)cc1 — recorded TGI = > 100 µM

Please fill in: TGI reported for COc1ccc(/C=C2\CCC(CNc3ccc(S(N)(=O)=O)cc3)C2=O)cc1 (stereo unspecified) = 43.1 µM

The compound listed as COc1ccc(/C=C2\NC(=S)N(/C=C3\C(=O)Oc4ccccc4C3=O)C2=O)cc1OC has a reported TGI of > 100 µM

TGI in this record for CN1CN(c2ccccc2)C2(CCN(Cc3csc4ccccc34)CC2)C1=O : 71 µM

Entry O=c1[nH]nnc2c1ncn2C1OC(CO)C(O)C1O (stereo unspecified) — recorded TGI = > 100 µM

The reported TGI of the compound N#Cc1ccc(OCc2nc(N)nc(N)c2-c2ccc(Cl)c(Cl)c2)cc1 was > 100 µM

# compound CNC(=O)Nc1nc2ccc([N+](=O)[O-])cc2[nH]1 ; its TGI = > 100 µM

---

System: SK-MEL-28 melanoma
TEST_SUMMARY: NCI tumour cell line growth inhibition, 48 h
TEST_READOUT: GI50

Below, each entry is followed by its recorded GI50 result.
CCOC(=O)N1CCN(/[N+]([O-])=N/Oc2ccc([N+](=O)[O-])cc2[N+](=O)[O-])CC1 : 1820 nM
COC12C=C/C(=C(/C(=O)OCc3cncnc3)C(=O)CCCCCCCCC3(OC)C=C/C(=C(/C(=O)OCc4cncnc4)C(=O)CCCCCCCC1)O3)O2 : 325 nM
CCCCON(OC(=O)c1ccc2ccccc2c1)C(=O)c1ccccc1 : > 100000 nM

Measured GI50 of COc1cccc(N2CCN(CC(=O)N3CCN(c4nnc(-c5ccc(Cl)cc5)c(-c5ccc(Cl)cc5)n4)CC3)CC2)c1 : > 100000 nM

---

System: HOP-92 NSCLC
TEST_SUMMARY: NCI tumour cell line growth inhibition, 48 h
TGI values by entry
Value expressed in µM; do not type the unit.

So for COc1cc(C=O)cc(/C=N/n2c3ccccc3c3ccccc32)c1O , the logged TGI turned out to be 9.58

Query O=C1C(Cl)=C(Nc2cccc(F)c2)C(=O)N1Cc1ccc(Cl)cc1 yields TGI of 26.2

---

Test system: SN12C renal
TEST_SUMMARY: NCI tumour cell line growth inhibition, 48 h
Parameter: TGI. Scope: all listed entries.

Consider the worked cases shown below.
CN(Cc1ccccc1)C(=NC#N)N(Cc1ccccc1)Cc1ccccc1 : > 92.9 µM
C/C(=N\NC(=S)N1CC2CCC(CC2)C1)c1nccs1 : 12.5 µM
O=C(O)c1n[nH][nH]c1=S : > 100 µM

For reference, reported TGI for CC(C)Cn1cnc2c(SCc3ccc(Cl)cc3Cl)nc(N)nc21 stands at > 100 µM

The recorded TGI for entry CCN(Cc1cc(Nc2nc(C)cn3c(-c4cn[nH]c4)cnc23)sn1)C(C)(C)CO equals 10.5 µM

// field: TGI; key: Cc1c2ccncc2c(C)c2c1[nH]c1ccc(OC(C)C)cc12 ; value = 2.45 µM

The molecule CN(CCNC(=O)c1nn(-c2ccccc2)c2c1Cc1ccccc1-2)CCNC(=O)c1nn(-c2ccccc2)c2c1Cc1ccccc1-2 showed TGI equal to 3.61 µM

Value of measured TGI for the entry C=CCN=c1sc2c(n1NC(=O)c1cc3ccc1CCc1ccc(cc1)CC3)C(=O)c1ccccc1C2=O : 2.79 µM

TGI recorded for this molecule, COc1ccc(/C=C2\NC(=S)N(/C=C3\C(=O)Oc4ccccc4C3=O)C2=O)cc1OC , is > 100 µM

---

Test system: M19-MEL melanoma
TEST_SUMMARY: NCI tumour cell line growth inhibition, 48 h
In this section we review reported TGI values for a set of compounds.

Solved entries (count: 6):
CSc1nc(NC2OCC(O)C(O)C2O)c(N)c(=O)[nH]1 (stereo unspecified) : > 100 µM
CCN(CC)c1c(C(=O)/C=C/c2ccc(Cl)cc2)c(-c2ccccc2)nn(C)c1=O : 3.14 µM
Cc1c2ccncc2c(C)c2c1[nH]c1ccc(OC(C)C)cc12 : 3.42 µM
Cc1ccc(NCC(=O)N2CC(=O)Nc3ccccc32)c(C)c1 : > 100 µM
CN(Cc1ccccc1)C(=NC#N)N(Cc1ccccc1)Cc1ccccc1 : 54.4 µM
CC1=C(C(=O)Nc2cc(=O)n(C)c(=O)n2C)C(c2ccco2)C(C(=O)Nc2cc(=O)n(C)c(=O)n2C)=C(C)N1 : > 100 µM

# TGI (compound: CCc1ccccc1NC(=O)C1=C(C)NC(C)=C(C(=O)Nc2ccccc2CC)C1c1ccccc1Cl ) is > 100 µM

Notebook: CN(O)C(=O)SCC(NC(=O)CCC(N)C(=O)O)C(=O)NCC(=O)O (stereo unspecified) , TGI read as > 2000 µM

The reported TGI of the compound O=c1cc(-c2ccccc2)c2ccccc2[nH]1 was > 100 µM

So for O=C1CC(O)CC(=O)C1=C(O)CCCCCCCCCCc1ccccc1 (stereo unspecified) , the logged TGI turned out to be > 100 µM

Sure, the documented TGI for Cc1cc(CC(=O)NCCO)n(CCO)c(=O)c1 is > 100 µM
